- Assay target: histamine H4 receptor (Homo sapiens, UniProt Q9H3N8)
- Sequence (Q9H3N8 whole entry): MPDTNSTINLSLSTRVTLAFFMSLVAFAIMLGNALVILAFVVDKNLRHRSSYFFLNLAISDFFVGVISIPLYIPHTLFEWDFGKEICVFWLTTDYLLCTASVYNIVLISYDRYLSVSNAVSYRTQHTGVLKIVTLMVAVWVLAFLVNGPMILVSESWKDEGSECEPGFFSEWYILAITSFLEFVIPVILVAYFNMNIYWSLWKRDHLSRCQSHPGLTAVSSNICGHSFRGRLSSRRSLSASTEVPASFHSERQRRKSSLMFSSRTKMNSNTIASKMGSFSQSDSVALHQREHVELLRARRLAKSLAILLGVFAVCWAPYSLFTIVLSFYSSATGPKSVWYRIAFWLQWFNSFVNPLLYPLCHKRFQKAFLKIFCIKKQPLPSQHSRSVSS
- Method summary: H4 Membrane Binding Assay (3H-Histamine displacement)
- Experimental conditions: membranes of recombinant HEK293SFM cells, 10 nM 3H-Histamine, 1.5 hr at room temperature
Readings of IC50 for the listed molecules
State the answer as a number, implicitly in nM.

Examples with answers:
> print(dat)
                  compound.structure.string  observed
1  CCOC(=O)N1CCC(OC(=O)N2CCc3ccc(-c4cc(N5CCN(C)CC5)nc(N)n4)cc3C2)CC1        38
2  CC(C)COC(=O)N1CCc2ccc(-c3cc(N4CCN(C)CC4)nc(N)n3)cc2C1      53.4
3  CN1CCN(c2cc(-c3ccc4c(c3)CN(C(=O)N3CCC(c5ccccc5)CC3)CC4)nc(N)n2)CC1        84
4  CN1CCN(c2cc(-c3ccc4c(c3)CN(C(=O)Nc3ccc(Cl)cc3)CC4)nc(N)n2)CC1      13.2
5  CN1CCN(c2nc(N)nc3cc(C(=O)Nc4cccc(Cl)c4)ccc23)CC1       896
6  CN1CCN(c2cc(-c3ccc4c(c3)CN(C(=O)NC3CCCCC3)CC4)nc(N)n2)CC1        24
7  CN1CCN(c2nc(N)nc3cc(C(=O)Nc4ccc(Oc5ccccc5)cc4)ccc23)CC1       287

Note: attention shifts to another entry.
Tell me reported IC50 for CN1CCN(c2cc(-c3ccc4c(c3)CN(C(=O)Cn3cccn3)CC4)nc(N)n2)CC1 , tested with histamine H4 receptor (Homo sapiens, UniProt Q9H3N8).
337
